- Read-out: CD69, CD69 (gene 969)
- ASSAY: BSK_SAg_CD69: BioMAP Diversity Plus: SAg Assay for CD69 Biomarker Activity (AID 2283089)
- SETTINGS: primary human HUVEC with PBMC; actives raise or lower the signal
- Experimental: BSK_SAg is a cell-based, multiplexed-readout assay that uses umbilical vein endothelium and peripheral blood mononuclear cells, a human vascular primary cell co-culture, with measurements taken at 24 hours after chemical dosing in a 96-well plate.BSK_SAg_CD69 is one of 10 assay component(s) measured or calculated from the BSK_SAg assay. […] This assay endpoint, BSK_SAg_CD69, was analyzed with bidirectional fitting relative to DMSO as the negative control and baseline of activity. […]
Calls of active or inactive are those of the source. How the source made its calls: active means hit-call score of the fitted dose curve at least 0.9, where 1 is the maximum; inactive means score below 0.9.
# valid calls are 1 for active, -1 for inactive; nothing else

CCCCOCCOP(=O)(OCCOCCCC)OCCOCCCC	-1
CCOc1ccc(C(C)(C)COCc2cccc(Oc3ccccc3)c2)cc1	-1
O=P(Oc1ccccc1)(Oc1ccccc1)Oc1ccccc1	1
OCC1CO1 (stereo not drawn)	-1
CCCN(CCC)c1c([N+](=O)[O-])cc(C(C)C)cc1[N+](=O)[O-]	1

For O=C(O)C(F)(OC(F)(F)C(F)(F)C(F)(F)F)C(F)(F)F (stereo not drawn) , which call appears in the assay record?
-1

Each compound tested received a call. Report the one for [N-]=[N+]=[N-] .
-1

For CCC1(c2ccccc2)C(=O)N=C(O)NC1=O (stereo not drawn) , which call appears in the assay record?
-1

In this assay, the call recorded for O=C(O)C1C(C(=O)O)C2(Cl)C(Cl)=C(Cl)C1(Cl)C2(Cl)Cl (stereo not drawn) was what?
-1

// param item: CC(C)(C)c1ccccc1OP(=O)(Oc1ccccc1)Oc1ccccc1 ; yields the recorded call
1

Outcome logged for CCNc1nc(Cl)nc(NC(C)(C)C)n1 in this assay:
-1

Can you look up the reported call for O=[N+]([O-])c1ccccc1 for me?
-1

For this compound, state the assay outcome: O=[N+]([O-])c1ccc(Cl)c(Cl)c1
-1

* * *

- ASSAY: IUF_NPC1a_proliferation_area_72hr: Leibniz Research Institute for Environmental Medicine (IUF) 72-hour Neural Progenitor Cell Proliferation Area Assay (NPC1a) (AID 2284208)
Activity calls are given as the source filed them. The calls were made as follows: active = hit-call score of the fitted dose curve at least 0.9, where 1 is the maximum; inactive = score below 0.9.
Hi there, use one of these labels in your reply, thanks! active, inactive

// known answers, use as guide
O=S1(=O)OCC2C(CO1)C1(Cl)C(Cl)=C(Cl)C2(Cl)C1(Cl)Cl (configuration not stated)	inactive
CCCCC(CC)COP(=O)(Oc1ccccc1)Oc1ccccc1 (configuration not stated)	inactive

Assay result, entry O=C(O)C(F)(OC(F)(F)C(F)(F)C(F)(F)F)C(F)(F)F (configuration not stated) — outcome?
inactive

What did this assay record as the result for O=P(Oc1ccccc1)(Oc1ccccc1)Oc1ccccc1 ?
inactive

What classification did CO/N=C(/C(=O)OC)c1ccccc1COc1ccccc1C end up with in this test?
active

I'd appreciate the recorded outcome for CCOc1ccc(C(C)(C)COCc2cccc(Oc3ccccc3)c2)cc1 from this test.
inactive

Fill in: this test's call for CCCCOCCOP(=O)(OCCOCCCC)OCCOCCCC is ___
inactive

* * *

- ASSAY SYSTEM: Nuclear receptor subfamily 1 group I member 2 (Homo sapiens) (UniProt O75469)
- Sequence (O75469 whole entry, looked up): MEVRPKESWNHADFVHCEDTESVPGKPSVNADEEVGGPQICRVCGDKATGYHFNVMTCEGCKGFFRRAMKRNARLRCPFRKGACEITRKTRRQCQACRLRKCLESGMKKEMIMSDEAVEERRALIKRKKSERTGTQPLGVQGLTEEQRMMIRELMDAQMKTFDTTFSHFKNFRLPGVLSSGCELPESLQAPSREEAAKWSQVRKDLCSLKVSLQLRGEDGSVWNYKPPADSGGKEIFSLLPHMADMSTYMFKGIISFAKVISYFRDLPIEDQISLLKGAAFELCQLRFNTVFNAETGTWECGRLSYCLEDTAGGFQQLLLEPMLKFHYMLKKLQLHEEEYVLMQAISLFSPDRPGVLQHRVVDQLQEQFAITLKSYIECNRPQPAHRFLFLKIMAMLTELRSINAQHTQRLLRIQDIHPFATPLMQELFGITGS
- ASSAY: NVS_NR_hPXR: NovaScreen (NVS) Nuclear Receptor Binding Assay for human Pregnane X Receptor (PXR) (AID 2283365);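 further: a drop in FRET signal versus DMSO baseline means the compound binds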
Results filed as inconclusive are left out. Calls of active or inactive are those of the source. Rule for the calls: active = hit-call score of the fitted dose curve at least 0.9, where 1 is the maximum; inconclusive = response in the unintended direction; inactive = score below 0.9.
Would you mind answering with one of these outcomes? 1 for active, 0 for inactive

Consider the following illustrative entries.
OCC1CO1 (stereo not drawn)	0
CCCCN(CC)C(=O)SCCC	0
CC1(C)CN=C(NN=C(/C=C/c2ccc(C(F)(F)F)cc2)/C=C/c2ccc(C(F)(F)F)cc2)NC1	1
CCCCOCCOP(=O)(OCCOCCCC)OCCOCCCC	1
O=P(OCC(Br)CBr)(OCC(Br)CBr)OCC(Br)CBr (stereo not drawn)	1
CCCCCCCc1ccc(O)cc1	0

Dear all, I need the recorded test outcome for O=NN1CCCC1 , thank you.
0

Fill in: this test's call for CO/N=C(/C(=O)OC)c1ccccc1COc1ccccc1C is ___
0

* * *

- ASSAY: APR_HepG2_MicrotubuleCSK_72hr: Apredica 72-hour HepG2 Assay for Microtubule CSK Stabilty (AID 2282919)
- SETTINGS: HepG2 microtubule cytoskeleton, high-content imaging, actives raise or lower the signal
Activity calls are given as the source filed them. The calls were made as follows: active = hit-call score of the fitted dose curve at least 0.9, where 1 is the maximum; inactive = score below 0.9.
Respond with a class label; see YES = active, NO = inactive

CCCCN(CCCC)N=O	NO
O=P(Oc1ccccc1)(Oc1ccccc1)Oc1ccccc1	YES
O=[N+]([O-])c1ccc(Cl)c(Cl)c1	NO

What was the test verdict on CC(Cl)(Cl)C(=O)O ?
NO

Call for entry CCOC(=O)c1ccccc1C(=O)OCC :
NO

* * *

- Read-out: UDP glucuronosyltransferase (UGT1A6), UGT1A6 (gene 54578)
- ASSAY: LTEA_HepaRG_UGT1A6: Life Technologies and Expression Analysis (LTEA) Assay for UDP glucuronosyltransferase (UGT1A6) using HepaRG (AID 2283539)
- SETTINGS: mRNA level, 48 h; actives raise or lower the signal
The source made the active and inactive calls. How the source made its calls: active means hit-call score of the fitted dose curve at least 0.9, where 1 is the maximum; inactive means score below 0.9.
// classify into active, inactive

Use these answered entries as a reference point.
CSC(C)(C)C=NO	inactive
Cc1cccc(N)c1	inactive
CCN(CC)c1ccccc1	inactive
CCC1(c2ccccc2)C(=O)N=C(O)NC1=O (stereo unspecified)	inactive

Record request — test call for Nc1cc2c3c(c1)C(c1ccccc1)=N[C@@H](NC(=O)c1cccnc1)C(=O)N3CC2
inactive

Record lookup: outcome of this test for O=C(O)C1C(C(=O)O)C2(Cl)C(Cl)=C(Cl)C1(Cl)C2(Cl)Cl (stereo unspecified) ?
inactive

// outcome(item) with item = Cc1ccc(O)cc1C
inactive

Field: outcome | Entry: O=C(O)C(Cl)Cl
active

Given c1cc2c3c(cccc3c1)CC2 , state the outcome it received in this test.
inactive

What classification did CC(C)(C)c1ccc(O)cc1 end up with in this test?
inactive

Could you kindly confirm the outcome this assay logged for COCCOCCO ?
inactive

I would be grateful if you could indicate the recorded call for [N-]=[N+]=[N-] .
inactive

What did the test return for O=[N+]([O-])c1ccc(Cl)c(Cl)c1 ?
inactive

Look up the recorded call for CCOP(=S)(Oc1ccc([N+](=O)[O-])cc1)c1ccccc1 (stereo unspecified) in this test.
inactive

Assay outcome for CC(Cl)(Cl)C(=O)O : what was it?
inactive

Field: outcome | Entry: c1ccc2c(c1)Nc1ccccc1S2
inactive

Which outcome was entered for the molecule O=[N+]([O-])c1ccccc1 in this test?
inactive

Name the outcome recorded for Nc1ccc2ccccc2c1 in the assay.
inactive

* * *

- ASSAY: ACEA_AR_antagonist_AUC_viability: ACEA Biosciences xCELLigence Real-Time Cell Analysis on Androgen Receptor Antagonism for Viability (AID 2283776);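 further: 22Rv1 human prostate cancer cells growing on impedance electrode plates; area under impedance growth curve at 80 h after dosing as viability; hits lower the growth signal relative to DMSO meaning cytotoxicity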
Inconclusive results are not listed. Activity calls are given as the source filed them. How the source made its calls: active means hit-call score of the fitted dose curve at least 0.9, where 1 is the maximum; inconclusive means response in the unintended direction; inactive means score below 0.9.
MEASURED ENDPOINT: AC50

Record excerpt, results attached:
CCCN(CCC)c1c([N+](=O)[O-])cc(C(C)C)cc1[N+](=O)[O-]	58.7 µM (active)
O=P1(N(CCCl)CCCl)NCCCO1 (centres undefined)	inactive
[N-]=[N+]=[N-]	50 µM (active)
c1cc2c3c(cccc3c1)CC2	inactive

We now examine a further molecule.
Entry under review: CCCCN(CCCC)SN(C)C(=O)Oc1cccc2c1OC(C)(C)C2 . Reported AC50?
49.2 µM (active)

* * *

- Read-out: Macrophage colony-stimulating factor (MCSF), CSF1 (gene 1435)
- ASSAY: BSK_CASM3C_MCSF: BioMAP Diversity Plus: CASM3C Assay for Macrophage colony-stimulating factor (MCSF) Biomarker Activity (AID 2283044);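 further: M-CSF protein amount quantified by ELISA after 24 h exposure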
- SETTINGS: primary human coronary artery smooth muscle cells; actives raise or lower the signal
Active and inactive are the calls of the source. Rule for the calls: active = hit-call score of the fitted dose curve at least 0.9, where 1 is the maximum; inactive = score below 0.9.
Classes to choose from: active, inactive

Past entries and their recorded results:
CCOc1ccc(C(C)(C)COCc2cccc(Oc3ccccc3)c2)cc1	inactive
CCCCC(CC)COC(=O)c1c(Br)c(Br)c(Br)c(Br)c1C(=O)OCC(CC)CCCC (stereo not given)	inactive
CCOP(=S)(S)OCC	inactive
CC(Cl)CN(C)C (stereo not given)	inactive
OCC1CO1 (stereo not given)	inactive
CCC1(c2ccccc2)C(=O)N=C(O)NC1=O (stereo not given)	inactive
ClC(Cl)=C(c1ccc(Cl)cc1)c1ccccc1Cl	active
Cc1c([N+](=O)[O-])cc2c(c1[N+](=O)[O-])C(C)(C)CC2(C)C	active
CCOP(=S)(NC(C)C)Oc1ccccc1C(=O)OC(C)C (stereo not given)	inactive
COP(=O)(O)OC	inactive

Field: outcome | Entry: CCCCCCCc1ccc(O)cc1
active

Tell me the assay call for O=P(Oc1ccccc1)(Oc1ccccc1)Oc1ccccc1 please.
inactive

Hi team, can someone confirm the assay call for CN(C)C(=O)Cl ?
inactive

Which outcome was assigned to CCOP(=S)(Oc1ccc([N+](=O)[O-])cc1)c1ccccc1 (stereo not given) in this test?
inactive

So what was the verdict on Cc1ccc([N+](=O)[O-])cc1C in this test?
inactive

# lookup: test call for CCOP(=S)(OCC)SCS(=O)(=O)CC
inactive

What did the test return for Cc1ccc(O)cc1C ?
inactive

Numbers sourced from PubChem BioAssay (EPA / NIEHS).
